The measurements presented in this section are drawn from PubChem BioAssay AID1159580.

Assay: chemical genetic growth profiling, strain panel (AID 1159580);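 further: tested at 20 µM; growth read once vehicle control cultures reached saturation at 30 °C; 1 = growth at the plate median or of vehicle wells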
Settings: S. cerevisiae deletion strains, growth OD, locus YOR136W, strain idh2, stronger effect = lower value
In all, about 5,500 compounds went through this assay and about 2,000 (36%) were called active. Roughly 18% stayed inconclusive and do not appear here. The list shows a part of the results.
The entries below are paired with their reported normalized growth.
Number, no unit, nothing else.

# compound, endpoint.name, value.measured
data = [
    ("CN1CCC(OC(c2ccccc2)c2ccccc2)CC1", "normalized growth", 0.983),
    ("CN(C)CCN(Cc1ccccc1)c1ccccn1", "normalized growth", 0.997),
    ("COc1ccc(-c2coc3cc(OC)ccc3c2=O)cc1", "normalized growth", 0.971),
    ("CN(C)CCOC(c1ccc(Cl)cc1)c1ccccn1 (centres undefined)", "normalized growth", 1.01),
    ("C[C@@H]1CC(Cl)CC[C@H]1C(=O)OC(C)(C)C (some centres undefined)", "normalized growth", 0.996),
    ("O=C1CCC(N2C(=O)c3ccccc3C2=O)C(=O)N1 (centres undefined)", "normalized growth", 0.981),
    ("O=C(O)CCCc1ccc(N(CCCl)CCCl)cc1", "normalized growth", 0.987),
    ("NCCc1cnc[nH]1", "normalized growth", 1.02),
    ("COc1cc([C@@H]2c3cc4c(cc3C(OC3O[C@@H]5COC(C)O[C@H]5[C@H](O)[C@H]3O)C3COC(=O)[C@@H]32)OCO4)cc(OC)c1O (some centres undefined)", "normalized growth", 0.971),
    ("CC(=O)O[C@H]1C[C@@H](OC(C)=O)C(C)(C)C2CC(=O)[C@]3(C)C(CC[C@@]4(C)[C@H](C(=O)O)OC(=O)C5OC543)[C@]21C (some centres undefined)", "normalized growth", 0.985),
]

Can you look up the measured normalized growth of `COc1ccc(C(=O)CC(=O)O)c2c1C=CC(C)(C)O2` for me? 0.985

Which normalized growth value is on record for C=C[C@@](C)(O)CCC1C(=C)CCC2[C@@](C)(CO)CCC[C@]12C (some centres undefined) ? 1.01

Value lookup for normalized growth; key = Cn1c(=O)c2c(ncn2CC(O)CO)n(C)c1=O (centres undefined) 0.976

Query (compound): `COc1ccc(-c2coc3cc(O)ccc3c2=O)c(OC)c1` ; field requested: normalized growth 0.997

---

Assay: chemical genetic growth profiling, strain panel (AID 1159580)
Settings: S. cerevisiae deletion strains, growth OD, locus YMR078C, strain ctf18, stronger effect = lower value
Among all 5,500 compounds or so, about 2,000 (36%) were called active. Another 18% or so got no clear call; they are omitted. The list shows a part of the results.
endpoint.name: normalized growth
Answer using only a numeral; do not append any unit.

Answered examples (3):
# compound, normalized growth
records = [
    ("COC(=O)C[C@H]1C2(C)CC34OC5(C)O[C@@]6([C@H](OC)C(OC(=O)C(C)C)[C@]7(C)C(/C(=C(/OC)C(C)C)C(=O)O[C@H]7c7ccoc7)[C@@]6(O5)[C@H](OC)[C@@]3(OC)C2OC(C)=O)[C@]14C (some centres undefined)", 1.01),
    ("COc1cc2c(cc1OC)C(=O)c1ccc(OC)c(OC)c1OCC(=O)C2", 1),
    ("COc1ccc(C(c2ccc(OC)cc2)C(Cl)(Cl)Cl)cc1", 0.988),
]

Form field: reported normalized growth of C=C[C@@](C)(O)CCC1C(=C)C[C@H](OC(C)=O)C2C(C)(C)CCCC12C (some centres undefined) 0.987

---

Test: chemical genetic growth profiling, strain panel (AID 1159580)
Conditions: S. cerevisiae deletion strains, growth OD, locus YML032C, strain rad52
Out of some 5,500 compounds screened, about 2,000 (36%) were called active. Another 18% or so got no clear call; they are omitted. No stated cut-off is given here; in the data, active means normalized growth mostly below about 0.91 (no sharp cut-off); inconclusive means no clear call, values can overlap the other calls; inactive means mostly above about 0.92. Some of the results follow.
Lab note: assign the record to one of active, inactive

# compound, qualitative.label
rows = [
    ("COc1ccc(CN(CCN(C)C)c2ccccn2)cc1", "inactive"),
]

Please let me know the test result on file for `COc1ccc(C(c2ccc(OC)cc2)C(Cl)(Cl)Cl)cc1` . inactive

How did this test come out for `NCCc1cnc[nH]1` ? inactive

---

Assay: chemical genetic growth profiling, strain panel (AID 1159580);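 further: tested at 20 µM; growth read once vehicle control cultures reached saturation at 30 °C; 1 = growth at the plate median or of vehicle wells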
Conditions: S. cerevisiae deletion strains, growth OD, locus YKR001C, strain vps1, stronger effect = lower value
Out of some 5,500 compounds screened, about 2,000 (36%) were called active. Roughly 18% stayed inconclusive and do not appear here. This is one part of the list.
endpoint.name: normalized growth
// no unit, no text: just the number

Could you share which normalized growth value was measured for COC(=O)C[C@H]1C2(C)CC34OC5(C)O[C@@]6([C@H](OC)C(OC(=O)C(C)C)[C@]7(C)C(/C(=C(/OC)C(C)C)C(=O)O[C@H]7c7ccoc7)[C@@]6(O5)[C@H](OC)[C@@]3(OC)C2OC(C)=O)[C@]14C (stereo partly drawn) ? 0.992

Which normalized growth is reported for this compound? NCCC(O)C(=O)NC1CC(N)C(OC2OC(CN)C(O)C(O)C2N)C(OC2OC(CO)C(O)C2O)C1O (stereo not drawn) 1

Which normalized growth value is on record for CNCCC(Oc1ccc(C(F)(F)F)cc1)c1ccccc1 (stereo not drawn) ? 1.01

GET /values?readout=normalized growth&item= `CC[C@H]1OC(=O)[C@H](C)[C@@H](O[C@H]2C[C@@](C)(OC)[C@@H](O)[C@H](C)O2)[C@H](C)[C@@H](O[C@@H]2O[C@H](C)C[C@H](N(C)C)[C@H]2O)[C@](C)(OC)C[C@@H](C)C(=O)[C@H](C)[C@@H](O)[C@]1(C)O` 0.999

What value of normalized growth has been reported for the following compound? `CCN(CC)C(=O)N1CCN(C)CC1` 1.01

---

In this section, each of the compounds is paired with its reported normalized growth.
Assay: chemical genetic growth profiling, strain panel (AID 1159580);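 further: tested at 20 µM; growth read once vehicle control cultures reached saturation at 30 °C; 1 = growth at the plate median or of vehicle wells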
Settings: S. cerevisiae deletion strains, growth OD, locus YMR307W, strain GAS1, stronger effect = lower value
In all, about 5,500 compounds went through this assay and about 2,000 (36%) were called active. Another 18% or so got no clear call; they are omitted. This is one part of the list.
No unit in the answer, please; the number alone is enough.

Some solved entries appear below for comparison.
# compound, value.measured
records = [
    ("CN(C)CCOC(c1ccc(Cl)cc1)c1ccccn1 (stereo not drawn)", 0.976),
    ("Cc1ccccc1C(OCCN(C)C)c1ccccc1 (stereo not drawn)", 1.01),
]

Param item = CC(=O)S[C@@H]1CC2=CC(=O)CC[C@]2(C)[C@H]2CC[C@@]3(C)[C@@H](CC[C@@]34CCC(=O)O4)C12 (stereo partly drawn) ; retrieve measured normalized growth. 0.999

---

Assay: chemical genetic growth profiling, strain panel (AID 1159580);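 further: tested at 20 µM; growth read once vehicle control cultures reached saturation at 30 °C; 1 = growth at the plate median or of vehicle wells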
Details: S. cerevisiae deletion strains, growth OD, locus YJR043C, strain POL32, stronger effect = lower value
In all, about 5,500 compounds went through this assay and about 2,000 (36%) were called active. Roughly 18% stayed inconclusive and do not appear here. This is one part of the list.
Listed here: items and their measured normalized growth.

Look up normalized growth for this compound: `N[C@@H](Cc1ccc(N(CCCl)CCCl)cc1)C(=O)O` 0.989 (inactive)

Any idea what normalized growth was measured for `c1ccc(OCCOc2ccccn2)nc1` ? 0.995 (inactive)

I am curious: what normalized growth value has been reported for `S=C1NCN(CCN2CCCC2)CN1` ? 0.986 (inactive)

Which normalized growth value belongs to `COc1cc(OC)c2c(c1)O[C@H](c1cc(OC)c(OC)c(OC)c1)[C@H](OC(=O)c1cc(OC)c(OC)c(OC)c1)C2` ? 0.992 (inactive)

For the compound shown here, `O=C(O)CCCc1ccccc1` , give the reported normalized growth. 0.98 (inactive)

Which normalized growth reading was recorded for the compound `C/C(=C\C(=O)Nc1ccc(F)cc1)Nc1ccc(F)cc1` ? 1.02 (inactive)

Which normalized growth value belongs to C=C[C@@](C)(O)CCC1C(=C)C[C@H](O)C2C(C)(C)CCCC12C (stereo partly specified) ? 0.997 (inactive)

I'd like to know its normalized growth. The compound in question is `O=C(CCc1nc(-c2ccc(Cl)cc2)no1)NNS(=O)(=O)c1cc(Cl)c(Cl)cc1Cl` 0.999 (inactive)

For the compound `COC(=O)/C=C/C(C)=C/C=C/C(C)=C/C=C/C=C(C)/C=C/C=C(C)/C=C/C(=O)O` , what normalized growth is on record? 1.03 (inactive)

Look at this compound and give its reported normalized growth. `COC(=O)c1ccc2c(c1)N(C)S(=O)(=O)CC2=O` 1.02 (inactive)

What value of normalized growth has been recorded for this entry: `COc1c(Br)cc([N+](=O)[O-])c(OC)c1C(N)=O` 1.04 (inactive)

For the compound shown here, `O=C(O)c1cc2cc(F)ccc2[nH]1` , give the reported normalized growth. 1.01 (inactive)

Give the measured normalized growth of `CC[C@H]1OC(=O)[C@H](C)[C@@H](O[C@H]2C[C@@](C)(OC)[C@@H](O)[C@H](C)O2)[C@H](C)[C@@H](O[C@@H]2O[C@H](C)C[C@H](N(C)C)[C@H]2O)[C@](C)(OC)C[C@@H](C)C(=O)[C@H](C)[C@@H](O)[C@]1(C)O` . 0.958 (inactive)

Suppose we examine the compound C[C@@H]1CC(Cl)CC[C@H]1C(=O)OC(C)(C)C (stereo partly specified) ; what normalized growth value has been reported? 0.977 (inactive)

Query (compound): `COc1ccc(-c2coc3cc(OC)ccc3c2=O)cc1` ; field requested: normalized growth 0.885 (inactive)

I have this compound here, `CC(=O)Oc1cc(OC(C)=O)c2c(c1)O[C@H](c1ccc(OC(C)=O)c(OC(C)=O)c1)[C@@H](OC(C)=O)C2` , and I need its recorded normalized growth. 1.01 (inactive)

Looking for the measured normalized growth of CCC(C)C(=O)OC1CC2(C)C(c3ccoc3)OC(=O)CC23OC2(C)OC34C(OC(=O)C(C)C)C3(O)C(OC(=O)C5(C)OC5C)C5(C)CC3(O)C(C)(C5C(=O)OC)C14O2 (stereo unspecified) , can you help? 1.04 (inactive)

Which normalized growth reading was recorded for the compound `COc1ccc(-c2coc3cc(O)ccc3c2=O)c(OC)c1O` ? 0.985 (inactive)

Please give the measured normalized growth for this compound: c1ccc2c(c1)CCCC2C1=NCCN1 (stereo unspecified) 1.01 (inactive)

Suppose we examine the compound `O=c1c(-c2ccc(O)cc2)coc2cc(O)ccc12` ; what normalized growth value has been reported? 0.994 (inactive)

GET /values?readout=normalized growth&item= COC(=O)C[C@H]1C2(C)CC34OC5(C)O[C@@]6([C@H](OC)C(OC(=O)C(C)C)[C@]7(C)C(/C(=C(/OC)C(C)C)C(=O)O[C@H]7c7ccoc7)[C@@]6(O5)[C@H](OC)[C@@]3(OC)C2OC(C)=O)[C@]14C (stereo partly specified) 1.03 (inactive)
